- Tested on: Escherichia coli TOP10;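 further: peptides expressed intracellularly from a pBAD plasmid library in pooled LB shake-flask culture, induced with 0.3% L-arabinose, DNA abundance read by NGS, three biological replicates, DESeq2 with apeglm shrinkage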
- test-details: shrunken log2 fold change of peptide-encoding DNA abundance (4.5 h post-induction vs induction); higher = less antimicrobial activity (less host growth inhibition)
- condition-label: time post-induction: 4.5 h; library: site-saturation at positions 5, 18, 19, 20
// Condition not met strictly below 0.1 in shrunken log2 fold change; Condition met otherwise

macromolecule-sequence	cat
RRIRARPPRLPRPRPRPDKAPRP	Condition met
RRIRGRPPRLPRPRPRPDYCPRP	Condition not met
RRIRTRPPRLPRPRPRPANRPRP	Condition not met
RRIRRRPPRLPRPRPRPPRLPRP	Condition met
RRIRWRPPRLPRPRPRPIPYPRP	Condition not met
RRIRQRPPRLPRPRPRPTLYPRP	Condition not met
RRIRDRPPRLPRPRPRPTNYPRP	Condition not met
RRIRGRPPRLPRPRPRPWKDPRP	Condition not met
RRIRIRPPRLPRPRPRPDCMPRP	Condition not met
